Provenance of the data: ChEMBL document CHEMBL1201862

# Tested on: Hs-578T
# testDetails: NCI tumour cell line growth inhibition, 48 h
Activity calls are given as the source filed them. No stated cut-off is given here; in the data, active = GI50 up to about 1.1 µM and inactive = higher.

>  <compound>
Cc1n[nH]c(=O)c2cc(-c3ccccc3)[nH]c12

>  <GI50>
26.4 µM (inactive)

$$$$
>  <compound>
COc1cc2c3c(c1OC)-c1cc4c(cc1CC3(C#N)N(C(=O)c1ccccc1)CC2)OCO4 (stereo not given)

>  <GI50>
19.6 µM (inactive)

$$$$
>  <compound>
O=C1C[C@@H](c2ccccc2)NCCCCN(O)CCCN1

>  <GI50>
> 100 µM (inactive)

$$$$
>  <compound>
Cc1csc2c(P(=O)(OC(C)C)OC(C)C)c(-c3ccccc3)cn12

>  <GI50>
17.1 µM (inactive)

$$$$
>  <compound>
Cc1cc(NS(=O)(=O)c2ccc(NC(=O)c3ccc4[nH]c5ccccc5c(=O)c4c3)cc2)no1

>  <GI50>
49.9 µM (inactive)

$$$$
>  <compound>
Cc1nc(N)nc(N)c1-c1ccc(Cl)c(Cl)c1

>  <GI50>
4.72 µM (inactive)

$$$$
>  <compound>
COC(=O)[C@@H]1Cc2cc(O)c(O)cc2C2(CCN(C)CC2)O1

>  <GI50>
> 10 µM (inactive)

$$$$
>  <compound>
C#CC1NC(=O)C1N(CC)CC (stereo not given)

>  <GI50>
> 100 µM (inactive)

$$$$
>  <compound>
O[C@@H]1[C@H](OC2c3ccccc3-c3ccccc32)[C@H](OCc2ccccc2)[C@@H]2OC[C@H]1O2

>  <GI50>
43.4 µM (inactive)

$$$$
>  <compound>
COC(=O)c1nc(-c2nc(CCNC(=O)OC(C)(C)C)sc2Cl)sc1Cl

>  <GI50>
> 100 µM (inactive)

$$$$
